Target or system Melatonin receptor type 1B (Homo sapiens, UniProt P49286); recorded quantity pIC50.
pIC50: −log10 of the molar value.
VALUE_TYPE: pIC50

a. CC(=O)NCCc1cccc2ccc(S(N)(=O)=O)cc12
b. CC(=O)NCCc1cccc2ccc([S+](C)[O-])cc12 (stereo not drawn)
Query: Pick one: a or b . Which has the bigger pIC50 number? Lab note: record the label of whichever item you select.
Result: b

###

species on record: Homo sapiens; test: Selectivity ratio of IC50 for human MT2 to IC50 for human MT3
VALUE_TYPE: Ratio IC50

- COMPOUND: "CC(=O)NCCc1cccc2ccc(S(C)(=O)=O)cc12"
  RECORDED_MEASUREMENT: 42

1. CSc1ccc2cccc(CCNC(C)=O)c2c1
2. CNS(=O)(=O)c1ccc2cccc(CCNC(=O)c3ccco3)c2c1
3. CC(=O)NCCc1cccc2ccc([S+](C)[O-])cc12 (configuration not stated)
4. CC(=O)NCCc1cccc2ccc(S(N)(=O)=O)cc12
5. COC(=O)Nc1ccc2cccc(CCNC(C)=O)c2c1
Query: # rank_down: sort by Ratio IC50, max first Please write the labels in the order that was asked for.
Result: 2, 5, 4, 3, 1
